- tested system: T1, Cynomolgus monkey CD98 ECD with C-terminal His-tag (SEQ ID NO: 127) (cynomolgus monkey, UniProt P08195 105-529 (human entry))
- T1 construct: The entry includes the linker and the polyhistidine tag; also called cyCD98 ECD
- T1 chain: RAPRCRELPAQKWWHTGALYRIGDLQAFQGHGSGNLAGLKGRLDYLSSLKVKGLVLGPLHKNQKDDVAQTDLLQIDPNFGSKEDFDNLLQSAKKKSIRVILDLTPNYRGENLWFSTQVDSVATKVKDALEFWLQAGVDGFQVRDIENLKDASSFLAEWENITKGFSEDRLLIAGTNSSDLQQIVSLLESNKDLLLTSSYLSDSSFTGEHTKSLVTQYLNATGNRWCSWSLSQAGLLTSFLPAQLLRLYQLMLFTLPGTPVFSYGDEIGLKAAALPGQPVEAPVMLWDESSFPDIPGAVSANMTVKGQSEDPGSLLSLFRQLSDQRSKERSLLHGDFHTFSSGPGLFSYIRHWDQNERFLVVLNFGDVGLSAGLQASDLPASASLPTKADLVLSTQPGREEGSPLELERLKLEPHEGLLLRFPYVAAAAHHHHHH
- experimental protocol: SPR (Biacore), recombinant CD98 ECD
recorded metric: Kd (nM)
Answer with a number only, understood to be in nM.

Q) In one line, give reported Kd of the entry huAb106 (antibody, V domains shown, Framework re-engineered humanized clone (parent huAb15v1), expressed as full-length IgG) VH: EVQLVQSGAEVKKPGASVKVSCKASGFTFSDYTMAWVRQAPGQGLEWVATIIYSGRGTYYRDAVKGRFTITRDNSTSTLYLELSSLRSEDTAVYYCARQSDHTYYYWGYFDYWGQGTMVTVSS VL: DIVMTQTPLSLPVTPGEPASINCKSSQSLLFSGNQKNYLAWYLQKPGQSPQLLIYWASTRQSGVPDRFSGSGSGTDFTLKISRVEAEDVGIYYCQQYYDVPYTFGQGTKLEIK .
A) 2.2
